Hey, just so you know, these numbers are from patent US20210317204A1.

- MEASURED ON: T1, human ROR1 extracellular domain-Fc fusion (human, UniProt Q01973 30-406)
- T1 construct: extracellular domain; also called hROR1; ROR1-hFc
- EXPERIMENT: SPR
RECORDED METRIC: pKd
// pKd here means minus log10 of the molar concentration (mol/L)

* P3A1-P3A1-S-mal-vcMMAE (VNAR, chain 1 pos 265 (C-terminal Gly, written G): carboxyl amidated with cysteamine (intein cleavage); its thiol joined by thioether to maleimide MC vc PAB MMAE) TRVDQTPRTATKETGESLTINCVLTDTSYGLYSTSWFRKNPGTTDWERMSIGGRYVESVNKGAKSFSLRIKDLTVADSATYYCKAREARHPWLRQWYDGAGTVLTVNGGGGSGGGGSGGGGSGGGGSGGGGSTRVDQTPRTATKETGESLTINCVLTDTSYGLYSTSWFRKNPGTTDWERMSIGGRYVESVNKGAKSFSLRIKDLTVADSATYYCKAREARHPWLRQWYDGAGTVLTVNQASGAHHHHHHGAEFEQKLISEEDLG | 9.23
* P3A1-P3A1-Ox-vcMMAE (VNAR, chain 1 pos 265 (C-terminal Gly, written G): carboxyl derivatised with O,O'-1,3-propanediylbishydroxylamine (C-terminal aminoxy), joined by oxime to benzaldehyde PEG2 vc PAB MMAE, linker as for m77) TRVDQTPRTATKETGESLTINCVLTDTSYGLYSTSWFRKNPGTTDWERMSIGGRYVESVNKGAKSFSLRIKDLTVADSATYYCKAREARHPWLRQWYDGAGTVLTVNGGGGSGGGGSGGGGSGGGGSGGGGSTRVDQTPRTATKETGESLTINCVLTDTSYGLYSTSWFRKNPGTTDWERMSIGGRYVESVNKGAKSFSLRIKDLTVADSATYYCKAREARHPWLRQWYDGAGTVLTVNQASGAHHHHHHGAEFEQKLISEEDLG | 8.84
* P3A1-[G4S]5-P3A1 homodimer with His6Myc tag (VNAR, genetic fusion of two VNAR domains; also called P3A1 dimer 6xHis myc; P3A1-P3A1) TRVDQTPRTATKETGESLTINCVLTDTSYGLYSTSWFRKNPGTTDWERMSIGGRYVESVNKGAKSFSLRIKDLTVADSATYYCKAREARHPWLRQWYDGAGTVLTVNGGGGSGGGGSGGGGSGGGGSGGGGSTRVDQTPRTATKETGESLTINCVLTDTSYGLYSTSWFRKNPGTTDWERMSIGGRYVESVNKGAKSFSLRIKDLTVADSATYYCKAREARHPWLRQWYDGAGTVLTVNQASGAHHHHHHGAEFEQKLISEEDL | 8.79

API: the following record is the query input.
Name the recorded pKd of the item P3A1-P3A1-Ox-MMAE (VNAR, chain 1 pos 265 (C-terminal Gly, written G): carboxyl derivatised with O,O'-1,3-propanediylbishydroxylamine (C-terminal aminoxy), joined by oxime to benzaldehyde PEG4 MMAE (non-cleavable), linker as for m77) TRVDQTPRTATKETGESLTINCVLTDTSYGLYSTSWFRKNPGTTDWERMSIGGRYVESVNKGAKSFSLRIKDLTVADSATYYCKAREARHPWLRQWYDGAGTVLTVNGGGGSGGGGSGGGGSGGGGSGGGGSTRVDQTPRTATKETGESLTINCVLTDTSYGLYSTSWFRKNPGTTDWERMSIGGRYVESVNKGAKSFSLRIKDLTVADSATYYCKAREARHPWLRQWYDGAGTVLTVNQASGAHHHHHHGAEFEQKLISEEDLG in your answer.
9.11
